- assay.notes: Metabolic (microsomal) stability assay, HLM
- Type: in vitro ADME
- condition.set: human liver microsomes, 1 μM test compound, predicted clearance as percent of liver blood flow
measure.name: HLM QH

Below: 2 molecules and their reported HLM QH.
[
  {
    "molecule": "C[C@@H](O)CN1CCCN(c2nccc(-c3onc4c3CCC[C@@]43CCCc4sc(N)c(C#N)c43)n2)[C@@H](C)C1",
    "HLM QH": ">88%"
  },
  {
    "molecule": "C[C@H](Oc1nccc(-c2onc3c2CCC[C@@]32CCCc3sc(N)c(C#N)c32)n1)[C@@H]1C[C@@H]2C[C@@H]2N1C",
    "HLM QH": ">88%"
  }
]

Give a short answer stating reported HLM QH for C[C@H]1CNCCCN1c1nccc(-c2noc3c2OCCC32CCCc3sc(N)c(C#N)c32)n1 (stereo partly shown) .
<24%

Please list HLM QH recorded for the molecule CC1Cc2c(-c3ccnc(N4CCCNC[C@@H]4C)n3)noc2C2(CCCc3sc(N)c(C#N)c32)C1 (stereo partly shown)
<24%

====

Parameter: HLM QH. Scope: all listed entries.
- assay.notes: Metabolic (microsomal) stability assay, HLM
- Type: in vitro ADME
- condition.set: human liver microsomes, 1 μM test compound, predicted clearance as percent of liver blood flow

These solved cases illustrate the format of a correct answer.
[
  {
    "compound": "C[C@H]1[C@@H]2CCCN2CCCN1c1nccc(-c2onc3c2CCC[C@@]32CCCc3sc(N)c(C#N)c32)n1 [Id-1]",
    "reported.measurement": ">88%"
  },
  {
    "compound": "CCN1[C@H]2C[C@H]2C[C@H]1[C@H](C)Oc1nccc(-c2onc3c2CCC[C@@]32CCCc3sc(N)c(C#N)c32)n1 [Ie-3]",
    "reported.measurement": ">88%"
  },
  {
    "compound": "C[C@H]1CNCCCN1c1cccc(-c2onc3c2CCC[C@@]32CCCc3sc(N)c(C#N)c32)n1 [Ib-3]",
    "reported.measurement": "<24%"
  }
]

Now let's try a different one.
Query HLM QH for C[C@H](Oc1nccc(-c2onc3c2CCC[C@@]32CCCc3sc(N)c(C#N)c32)n1)[C@@H]1C[C@@H](F)CN1C [Ie-2]
>88%

====

- target: KRAS G12C Ba/F3 cells (Homo sapiens, UniProt P01116, G12C, cells depend on it)
- Sequence (P01116 whole entry G12C): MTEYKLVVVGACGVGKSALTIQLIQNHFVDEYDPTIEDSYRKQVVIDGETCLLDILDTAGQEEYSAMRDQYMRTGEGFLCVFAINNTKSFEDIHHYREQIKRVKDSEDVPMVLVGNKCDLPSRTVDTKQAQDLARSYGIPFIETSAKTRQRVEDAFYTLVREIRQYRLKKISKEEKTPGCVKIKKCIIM
- assay.notes: Ba/F3 proliferation assay, KRAS G12C
- Format: cell-based
- condition.set: 72 h, AlamarBlue; read-out: KRAS G12C Ba/F3 IC50
measure.name: GI50 (nM)

[
  {
    "compound": "C[C@H](Oc1nccc(-c2nnn3c2CCCC32CCCc3sc(N)c(C#N)c32)n1)[C@@H]1CCCN1C (stereo partly shown) [IVa-1]",
    "target": "KRAS G12C Ba/F3 cells (Homo sapiens, UniProt P01116, G12C, cells depend on it)",
    "measure.name": "GI50",
    "u": "nM",
    "reported.measurement": 521
  }
]

a. C[C@H](Oc1ccnc(-c2noc3c2CCC[C@@]32CCCc3sc(N)c(C#N)c32)n1)[C@@H]1CCCN1C [IIb-3]
b. C[C@H]1CN(CC2CC2)CCCN1c1nccc(-c2onc3c2CCC[C@@]32CCCc3sc(N)c(C#N)c32)n1 [Ig-1]
c. C[C@H]1CNCCCN1c1nccc(-c2noc3c2CC(F)(F)CC32CCCc3sc(N)c(C#N)c32)n1 (stereo partly shown) [IIb-2]
Returns the items ordered by GI50, from maximum to minimum. Use the labels to give the ranking in the order requested.
c, b, a

A. C[C@@H](O)CN1CCCN(c2nccc(-c3onc4c3CCC[C@@]43CCCc4sc(N)c(C#N)c43)n2)[C@@H](C)C1 [Ig-4]
B. CC1Cc2c(-c3ccnc(N4CCCNC[C@@H]4C)n3)noc2C2(CCCc3sc(N)c(C#N)c32)C1 (stereo partly shown) [IIb-1]
Of the two listed items, which has the higher GI50? First: A Second: B Reply with the label of the item you choose.
B

====

- target: KRAS (G12D)::SOS1 (Homo sapiens, UniProt P01116, G12D)
- Construct: KRAS (G12D) 1-169, N-terminal 6His-tag, C-terminal avi-tag; 6His-tag (N); Viva Biotech Ltd (SOS1)
- Sequence (P01116 1-169 isoform P01116-2 G12D): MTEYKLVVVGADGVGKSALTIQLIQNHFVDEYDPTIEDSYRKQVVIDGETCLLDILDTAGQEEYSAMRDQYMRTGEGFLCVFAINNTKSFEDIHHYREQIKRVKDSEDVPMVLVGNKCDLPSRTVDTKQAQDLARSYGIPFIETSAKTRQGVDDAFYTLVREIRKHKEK
- assay.notes: KRAS::SOS1 AlphaScreen binding assay, KRAS G12D
pIC50: −log10 of the molar value.
measure.name: pIC50

Use these answered entries as a reference point.
[
  {
    "compound": "C[C@H](Oc1nccc(-c2nnn3c2CCCC32CCCc3sc(N)c(C#N)c32)n1)[C@@H]1CCCN1C (stereo partly shown)",
    "measure.name": "pIC50",
    "reported.measurement": 7.74
  },
  {
    "compound": "C[C@H](Oc1nccc(-c2n[nH]c3c2CCCC32CCCc3sc(N)c(C#N)c32)n1)[C@@H]1CCCN1C (stereo partly shown)",
    "measure.name": "pIC50",
    "reported.measurement": 7.80
  },
  {
    "compound": "C[C@H](Oc1nccc(-c2noc3c2CCC[C@@]32CCCc3sc(N)c(C#N)c32)n1)[C@@H]1CCCN1C",
    "measure.name": "pIC50",
    "reported.measurement": 8.70
  }
]

P. C[C@H]1CN(C2CCOC2)CCCN1c1nccc(-c2onc3c2CCC[C@@]32CCCc3sc(N)c(C#N)c32)n1 (stereo partly shown)
Q. CC1Cc2c(-c3ccnc(N4CCCNC[C@@H]4C)n3)noc2C2(CCCc3sc(N)c(C#N)c32)C1 (stereo partly shown)
So which one has the bigger pIC50 here, P or Q ? Let me know the label of the one you choose.
P

I. C[C@H]1CNCCCN1c1nccc(-c2noc3c2OCCC32CCCc3sc(N)c(C#N)c32)n1 (stereo partly shown)
II. C[C@H]1CNCCCN1c1cccc(-c2onc3c2CCC[C@@]32CCCc3sc(N)c(C#N)c32)n1
Kindly identify the item with the lower pIC50 figure among these two: I and II Label of pick, please.
II
(II: 8.10, I: 8.70)

====

- assay.notes: Solubility measurement (DMSO solution precipitation method)
- Type: physicochemical
- condition.set: aqueous buffer, kinetic from dmso stock; McIlvaine buffer pH 6.8, 24 h, ambient temperature; read-out: solubility pH 6.8
Measured solubility at 24 h, listed per entry.

[
  {
    "compound": "C[C@H](Oc1nccc(-c2onc3c2CCC[C@@]32CCCc3sc(N)c(C#N)c32)n1)[C@@H]1CCCN1C [Ib-1]",
    "solubility at 24 h": "> 110 µg/mL"
  }
]

Give solubility at 24 h for the following compound: C[C@H]1CN(C2CCOCC2)CCCN1c1nccc(-c2noc3c2CCC[C@@]32CCCc3sc(N)c(C#N)c32)n1 (single isomer, unassigned) [IIg-1]
< 1 µg/mL

Give recorded solubility at 24 h. C[C@H]1[C@@H]2CCCN2CCCN1c1nccc(-c2onc3c2CCC[C@@]32CCCc3sc(N)c(C#N)c32)n1 [Id-1]
> 108 µg/mL

Look up and report measured solubility at 24 h for this entry: C[C@H](Oc1nccc(-c2onc3c2CCC[C@@]32CCCc3sc(N)c(C#N)c32)n1)[C@@H]1C[C@@H]2C[C@@H]2N1 [If-2]
< 1 µg/mL

Fill in reported solubility at 24 h for this entry: C[C@H]1CN(CC2CC2)CCCN1c1nccc(-c2onc3c2CCC[C@@]32CCCc3sc(N)c(C#N)c32)n1 [Ig-1]
10 µg/mL

Quickly give me recorded solubility at 24 h for C[C@H](Oc1ccnc(-c2noc3c2CCC[C@@]32CCCc3sc(N)c(C#N)c32)n1)[C@@H]1CCCN1C [IIb-3]
> 120 µg/mL

Note solubility at 24 h for the compound shown: C[C@H](Oc1nccc(-c2noc3c2CCC[C@@]32CCCc3sc(N)c(C#N)c32)n1)[C@@]1(C)CCCN1C [IIe-1]
> 114 µg/mL

Identify measured solubility at 24 h associated with CCN1[C@H]2C[C@H]2C[C@H]1[C@H](C)Oc1nccc(-c2onc3c2CCC[C@@]32CCCc3sc(N)c(C#N)c32)n1 [Ie-3]
> 123 µg/mL

====

- target: KRAS (G12D)::SOS1 (Homo sapiens, UniProt P01116, G12D)
- Construct: KRAS (G12D) 1-169, N-terminal 6His-tag, C-terminal avi-tag; 6His-tag (N); Viva Biotech Ltd (SOS1)
- assay.notes: KRAS::SOS1 AlphaScreen binding assay, KRAS G12D
pIC50: −log10 of the molar value.
measure.name: pIC50

[
  {
    "molecule": "C[C@H](Oc1nccc(-c2onc3c2CCC[C@@]32CCCc3sc(N)c(C#N)c32)n1)[C@@H]1CCCN1C",
    "target": "KRAS (G12D)::SOS1 (Homo sapiens, UniProt P01116, G12D)",
    "reported.measurement": 8.70
  }
]

A. C[C@H]1CN(CC2CC2)CCCN1c1nccc(-c2onc3c2CCC[C@@]32CCCc3sc(N)c(C#N)c32)n1
B. C[C@H]1CNCCCN1c1nccc(-c2noc3c2CC(F)(F)CC32CCCc3sc(N)c(C#N)c32)n1 (stereo partly drawn)
Which entry has a larger number for pIC50, A or B ? Please respond with the label that marks your chosen entry.
A
